System: P388 leukemia ip, CD2F1 mice, survival T/C
Experimental Details: NCI In Vivo Anticancer Drug Screen. Data for tumor model P388 Leukemia (intraperitoneal) in CD2F1 (CDF1) mice
Measurement Setup: endpoint: median survival time; dose: 120.0 mg/kg/injection; schedule: Q01DX005 (ip); vehicle: Klucel (hydroxypropylcellulose) (HPC); higher = longer survival
Toxic doses and inconclusive results are not listed.
# T/C annotations

Please review the entries below; each comes with its answer.
CC1=NN(c2ccccc2)C(=O)C1C1c2ccccc2S(=O)(=O)c2ccccc21 (configuration not stated) :: 87 % of control
O=C(O)C12C=CC(CC1)CC2 :: 105 % of control
c1ncn(Cn2cncn2)n1 :: 107 % of control

Fc1cccc(Cl)c1C(Nc1nc2ccccc2s1)Nc1nc2ccccc2s1 tested on P388 leukemia ip, CD2F1 mice, survival T/C gave T/C: 101 % of control

// assay P388 leukemia ip, CD2F1 mice, survival T/C, entry O=C1C(N=Nc2ccc(Br)cc2)Sc2nc3ccccc3n21 (configuration not stated) , T/C value = 89 % of control

P388 leukemia ip, CD2F1 mice, survival T/C T/C of CN(C)C(=O)c1nc(CNC(=O)CN)n(-c2ccc(Cl)cc2C(=O)c2ccccc2)n1 is 100 % of control

Record for O=C(COc1ccc([N+](=O)[O-])cc1)NN1C(=O)c2ccc([N+](=O)[O-])cc2C1=O under target or system P388 leukemia ip, CD2F1 mice, survival T/C: T/C reported as 91 % of control

For the compound O=C(O)CCC(=O)NNc1nc2ccccc2s1 , the measured T/C on P388 leukemia ip, CD2F1 mice, survival T/C was 104 % of control
